The reported numbers originate from PubChem BioAssay (NCI).

system: SR leukemia; test: NCI-60 one-dose screen, 48 h (100 = growth as untreated, 0 = no growth, -100 = all killed); conditions: 10 µM unless noted
About 83,000 compounds went through this panel and 20% of them were active in at least one assay; those are over-represented in the sample as a whole.
List of growth values.
Report only the number, with the unit % understood.

These recorded examples may help you get a feel for the data.
compound=COc1ccc(C(=O)COc2cccc(/C=C3\COc4ccc5ccccc5c4C3=O)c2)cc1 measured=35
compound=COc1cc(C(=O)/C=C/c2cccc(Nc3ccnc4cc(Cl)ccc34)c2)cc(OC)c1OC measured=-18.7
compound="CN1C(=O)C(C2=NN(C=O)C(c3ccc(F)cc3)C2)C(=O)N(C)C1=O (stereo unspecified)" measured=101
compound=N/C(=N\C(N)=N\c1nc2ccccc2s1)c1ccnc(Cl)c1 measured=18.9
compound=c1cc[n+](Cc2ccnc3ccccc23)cc1 measured=24.1
compound="CC(=O)N1N=C(c2ccc(Nc3ccnc4cc(Cl)ccc34)cc2)CC1c1ccc(Cl)cc1 (stereo unspecified)" measured=2.79
compound=CN(C)c1ccc(-c2nc3ncc(Br)cc3o2)cc1 measured=94.4
compound="Cc1ccc(C2=NNC(c3sc(Cl)nc3Cl)C2)cc1 (stereo unspecified)" measured=3.24

Prompt line: Please give measured growth of the following entry: Cc1cc(C)c(C(=O)c2cccs2)c(C)c1
Response line: 86.1

Prompt line: Please give measured growth of the following entry: O=C(CSc1ncc(-c2ccccc2)n1-c1ccccc1)Nc1ccc(-c2nc3ccccc3s2)cc1
Response line: 73

Prompt line: Please give measured growth of the following entry: O=C1C=CC(=O)N1c1ccccc1N1C(=O)C=CC1=O
Response line: 92
